Would you mind telling me the reported ADCC, Percent Non-Viable cells (EC50 pM), Donor 1 of each entry?
- SYSTEM UNDER TEST: human CCR8 (human, UniProt P51685 1-355)
- Sequence (P51685 whole entry): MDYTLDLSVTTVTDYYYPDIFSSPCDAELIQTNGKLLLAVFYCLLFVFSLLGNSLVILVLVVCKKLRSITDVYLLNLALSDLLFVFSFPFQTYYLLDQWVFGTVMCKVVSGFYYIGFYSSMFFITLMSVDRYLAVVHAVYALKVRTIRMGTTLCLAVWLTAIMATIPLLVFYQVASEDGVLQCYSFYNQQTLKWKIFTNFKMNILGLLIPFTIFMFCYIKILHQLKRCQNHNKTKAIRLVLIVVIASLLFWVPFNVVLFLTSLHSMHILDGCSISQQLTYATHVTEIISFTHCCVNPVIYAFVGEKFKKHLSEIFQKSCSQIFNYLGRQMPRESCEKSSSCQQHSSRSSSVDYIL
- EXPERIMENTAL PROTOCOL: cell-based or functional assay

The value of ADCC, Percent Non-Viable cells (EC50 pM), Donor 1 measured for the binder Antibody 5.0 IgG1 (antibody, V domains shown) VH: QVQLVESGGGVVQPGRSLRLSCAASGFTFSSYGMHWVRQAPGKGLEWVAVISYDGSNKYYADSVKGRFTISRDNSKNTLYLQMNSLRAEDTAVYYCARGRYFDWFLFDYWGQGTLVTVSS VL: DTVMTQTPLSLSVTPGQPASISCKSSQSLLHSDGKTYLFWYLQKPGQPPQLLISEVSNRFSGVPDRFSGSGSGTDFTLKISRVEAEDVGFYYCMQSLRLPLTFGGGTKVEIKR turned out to be < 0.256 pM

ADCC, Percent Non-Viable cells (EC50 pM), Donor 1 measured on Antibody 2.2 IgG1 (LC: F2I_P51S_H53Q_L103V_N148K, HC: K87N_S94N_V98A)(LC: Y25A, HC: A71L_D72K) (antibody, V domains shown, Afucosylated IgG1) VH: QVQLVESGGGVVQPGRSLRLSCAASGFTFSNYGMHWVRQAPGKGLEWVAVISYDGSNKFYLKSVKGRFTISRDNSKNTLYLQMNSLRAEDTAVYYCARAGGIGRFDYWGQGTLVTVSS VL: DIVMTQTPLSLSVTPGQPASISCKASQSLLHSDGKTYLFWYLQKPGQSPQLLIYEVSNRFSGVPDRFSGSGSGTDFTLKISRVEAEDVGVYYCMQTLKLPLTFGGGTKVEIKR = < 0.256 pM

Query Antibody 3.0 IgG1 (antibody, V domains shown) VH: EVQLVESGGGLVKPGGSLRLSCAASGFIFSNAWMSWVRQAPGKGLEWVARIKRRTDGGTTDYAAPVKDRFTISRDDSKNTLFLQMNSLKTEDTAVYYCTTVTMVRGVIADYWGQGTLVTVSS VL: EIVLTQSPGTLSLSPGERATLSCRASQSVSSGSLAWYQQKLGQAPRLLIYGASSRATGIPDRFSGSGSGTDFTLTISSLEPEDFAVYYCQQYGSSRTFGQGTKVELKR yields ADCC, Percent Non-Viable cells (EC50 pM), Donor 1 of < 0.256 pM

Record Antibody 4.0 IgG1 (antibody, V domains shown) VH: EVQLVESGGGLVKPGGSLRLSCAASGFIFSNAWMSWVRQAPGKGLEWVGRIKRKTDGGTTDYAAPVKGRFTISRDDSKNTLYLLMNSLKIEDTAVYYCTVVTLVRGIIFDYWGQGTLVTVSS VL: EIVLTQSPGTLSLSPGESATLSCRVSQSVSSSQLAWYQQKPGQAPRLLIYGASSRATGIPDRFSGSGSGTDFTLTISRLEPEDFAVYYCQQYGNSRTFGQGTKVEIKR , field ADCC, Percent Non-Viable cells (EC50 pM), Donor 1: < 0.256 pM

For reference, reported ADCC, Percent Non-Viable cells (EC50 pM), Donor 1 for Antibody 2.1 IgG1 (LC: F2I_P51S_H53Q_L103V_N148K, HC: K87N_S94N_V98A)(LC: Y25A_S26A, HC: A71I_D72R) (antibody, V domains shown) VH: QVQLVESGGGVVQPGRSLRLSCAASGFTFSNYGMHWVRQAPGKGLEWVAVISYDGSNKFYIRSVKGRFTISRDNSKNTLYLQMNSLRAEDTAVYYCARAGGIGRFDYWGQGTLVTVSS VL: DIVMTQTPLSLSVTPGQPASISCKAAQSLLHSDGKTYLFWYLQKPGQSPQLLIYEVSNRFSGVPDRFSGSGSGTDFTLKISRVEAEDVGVYYCMQTLKLPLTFGGGTKVEIKR stands at < 0.256 pM

Measured ADCC, Percent Non-Viable cells (EC50 pM), Donor 1 of Antibody 6.0 IgG1 (antibody, V domains shown) VH: QVQLVESGGGVVQPGRSLRLSCEASGFTFSSYVMHWVRQAPGKGLEWVSVISYDGSSQYYTDSVKGRFTISRDNSKNTLNLQMNSLRAEDTAVYYCVRGRLATAILFDYWGQGTLVTVSS VL: DILMTQTPLSLSVTPGQPASISCKSSQSLLYSDGKTYLFWYLQRPGQPPQLLIYEVSNRFSGVPDRFSGSGSGTDFTLKISRVEAEDVGIYYCMQSIKLPLTFGGGTKVEIKR : 2 pM
